Values compiled from the CheMixHub drug solubility set.

Assay: xn = mol fraction of the nth substance listed, in the solute-free solvent
Settings: 323.15 K; x2 = 0.4
Quick rule: solubility (g/100 g solution) of at least 20 means TRUE, below that means FALSE.

Please tell me: is the molecule Cl.N=C(N)NC(=N)N1CCOCC1 + O + CC(C)O at or over 20 in terms of solubility (g/100 g solution)? FALSE

Please tell me: is the molecule CCOc1ccccc1C(N)=O + CO + CC#N at or over 20 in terms of solubility (g/100 g solution)? TRUE

Please tell me: is the molecule Cc1c(Br)c(=O)n(C2CCCC2)c2nc(Cl)ncc12 + C1CCOC1 + CCO at or over 20 in terms of solubility (g/100 g solution)? FALSE

Please tell me: is the molecule CCOc1ccccc1C(N)=O + CC#N + CCO at or over 20 in terms of solubility (g/100 g solution)? TRUE

Please tell me: is the molecule Cc1c(Br)c(=O)n(C2CCCC2)c2nc(Cl)ncc12 + CCOC(C)=O + CCO at or over 20 in terms of solubility (g/100 g solution)? FALSE

Please tell me: is the molecule Cc1c(Br)c(=O)n(C2CCCC2)c2nc(Cl)ncc12 + CC1=CC(=O)CC(C)(C)C1 + CC(C)O at or over 20 in terms of solubility (g/100 g solution)? FALSE

Please tell me: is the molecule O=C(NC(C(=O)O)c1ccccc1)OCc1ccccc1 (stereo not given) + CCO + O at or over 20 in terms of solubility (g/100 g solution)? TRUE

* * *

Test: xn = mol fraction of the nth substance listed, in the solute-free solvent
Settings: 283.15 K; x2 = 0.1666
Catalogue of solubility (g/100 g solution) values
A bare number is all that is needed in reply.

Would you please look over these solved cases?
molecule: c1ccc(-c2ccc(C(c3ccccc3)n3ccnc3)cc2)cc1 (centres undefined) + CCCO + O
solubility (g/100 g solution): 0.417
//
molecule: Nc1nc2ccc(OC(F)(F)F)cc2s1 + CCCO + O
solubility (g/100 g solution): 21.1
//
molecule: c1ccc(-c2ccc(C(c3ccccc3)n3ccnc3)cc2)cc1 (centres undefined) + CC(C)O + O
solubility (g/100 g solution): 0.394

Continue with the next molecule.
Looking for the measured solubility (g/100 g solution) of CC1CCC2C(C)C(OC(=O)CCC(=O)O)OC3OC4(C)CCC1C32OO4 (centres undefined) + CC(C)O + O , can you help? 0.985

* * *

Experiment: xn = mol fraction of the nth substance listed, in the solute-free solvent
Details: 293.15 K; x2 = 0.1
Catalogue of solubility (g/100 g solution) values
A bare number is all that is needed in reply.

Would you please look over these solved cases?
molecule: CCOc1ccccc1C(N)=O + CO + CC#N
solubility (g/100 g solution): 3.86
//
molecule: Cc1c(Br)c(=O)n(C2CCCC2)c2nc(Cl)ncc12 + CCOC(C)=O + CCO
solubility (g/100 g solution): 0.312
//
molecule: CCOc1ccccc1C(N)=O + CCO + CC#N
solubility (g/100 g solution): 3.67
//
molecule: Cl.N=C(N)NC(=N)N1CCOCC1 + O + CC(C)O
solubility (g/100 g solution): 0.499
//
molecule: Cc1c(Br)c(=O)n(C2CCCC2)c2nc(Cl)ncc12 + CC1=CC(=O)CC(C)(C)C1 + CC(C)O
solubility (g/100 g solution): 0.285

Continue with the next molecule.
Looking for the measured solubility (g/100 g solution) of O=C(NC(C(=O)O)c1ccccc1)OCc1ccccc1 (stereo not given) + CCO + O , can you help? 0.0958

* * *

Experiment: xn = mol fraction of the nth substance listed, in the solute-free solvent
Conditions: 293.15 K; x2 = 0.2
assay.endpoint: solubility (g/100 g solution)
A bare number is all that is needed in reply.

Looking for the measured solubility (g/100 g solution) of CCOC(=O)OC1=C(c2cc(C)ccc2C)C(=O)NC12CCC(OC)CC2 (stereo unspecified) + CC(C)O + O , can you help? 1.61

Looking for the measured solubility (g/100 g solution) of N#CCNC(=O)c1cnccc1C(F)(F)F + CCOC(C)=O + CCO , can you help? 6.22

* * *

Experiment: xn = mol fraction of the nth substance listed, in the solute-free solvent
Conditions: 283.15 K; x2 = 0.7
Catalogue of solubility (g/100 g solution) values
A bare number is all that is needed in reply.

compound: O=C(NC(C(=O)O)c1ccccc1)OCc1ccccc1 (stereo unspecified) + CCO + O
assay.endpoint: solubility (g/100 g solution)
reported.value: 8.19
//
compound: Cc1c(Br)c(=O)n(C2CCCC2)c2nc(Cl)ncc12 + CC1=CC(=O)CC(C)(C)C1 + CC(C)O
assay.endpoint: solubility (g/100 g solution)
reported.value: 0.543
//
compound: COC(=O)C(N)CS.Cl (stereo unspecified) + CCO + ClCCl
assay.endpoint: solubility (g/100 g solution)
reported.value: 5.33
//
compound: Cl.NC(Cc1ccccc1)C(=O)OCc1ccccc1 (stereo unspecified) + CO + CC(C)=O
assay.endpoint: solubility (g/100 g solution)
reported.value: 7.5
//
compound: Cc1ncc(CO)c(CO)c1O.Cl + O + CC(C)O
assay.endpoint: solubility (g/100 g solution)
reported.value: 4.36

Continue with the next compound.
Looking for the measured solubility (g/100 g solution) of Cc1ncc(CO)c(CO)c1O.Cl + O + CCCO , can you help? 6.24

* * *

Assay: xn = mol fraction of the nth substance listed, in the solute-free solvent
Details: 313.15 K; x2 = 0.6
Catalogue of solubility (g/100 g solution) values
A bare number is all that is needed in reply.

Would you please look over these solved cases?
molecule: Cc1ncc(CO)c(CO)c1O.Cl + O + CCCO
solubility (g/100 g solution): 11.3

molecule: CCOC(=O)OC1=C(c2cc(C)ccc2C)C(=O)NC12CCC(OC)CC2 (stereo unspecified) + CC(C)O + O
solubility (g/100 g solution): 15.4

molecule: Cl.NC(Cc1ccccc1)C(=O)OCc1ccccc1 (stereo unspecified) + CO + CC(C)=O
solubility (g/100 g solution): 9.8

molecule: Cc1c(Br)c(=O)n(C2CCCC2)c2nc(Cl)ncc12 + C1CCOC1 + CCO
solubility (g/100 g solution): 8.04

Looking for the measured solubility (g/100 g solution) of O=C(NC(C(=O)O)c1ccccc1)OCc1ccccc1 (stereo unspecified) + CCO + O , can you help? 29.6

Looking for the measured solubility (g/100 g solution) of CCOc1ccccc1C(N)=O + CO + CC#N , can you help? 20.4

Looking for the measured solubility (g/100 g solution) of Cc1ncc(CO)c(CO)c1O.Cl + O + CC(C)O , can you help? 9.79

Looking for the measured solubility (g/100 g solution) of CCOC(=O)OC1=C(c2cc(C)ccc2C)C(=O)NC12CCC(OC)CC2 (stereo unspecified) + CC(C)=O + O , can you help? 25.5

Looking for the measured solubility (g/100 g solution) of CCOC(=O)OC1=C(c2cc(C)ccc2C)C(=O)NC12CCC(OC)CC2 (stereo unspecified) + CCO + O , can you help? 14.3

Looking for the measured solubility (g/100 g solution) of N#CCNC(=O)c1cnccc1C(F)(F)F + CCOC(C)=O + CCO , can you help? 12.3

Looking for the measured solubility (g/100 g solution) of CCOc1ccccc1C(N)=O + CC#N + CC(C)O , can you help? 13

* * *

Assay: xn = mol fraction of the nth substance listed, in the solute-free solvent
Conditions: 303.15 K; x2 = 0.2
assay.endpoint: solubility (g/100 g solution)

Would you please look over these solved cases?
compound: Cl.N=C(N)NC(=N)N1CCOCC1 + O + CC(C)O
assay.endpoint: solubility (g/100 g solution)
reported.value: 1.51

compound: O=C(NC(C(=O)O)c1ccccc1)OCc1ccccc1 (stereo not given) + CCO + O
assay.endpoint: solubility (g/100 g solution)
reported.value: 1.18

compound: Cc1c(Br)c(=O)n(C2CCCC2)c2nc(Cl)ncc12 + CCOC(C)=O + CCO
assay.endpoint: solubility (g/100 g solution)
reported.value: 0.553

compound: N#CCNC(=O)c1cnccc1C(F)(F)F + CCOC(C)=O + CCO
assay.endpoint: solubility (g/100 g solution)
reported.value: 8.72

Continue with the next compound.
Looking for the measured solubility (g/100 g solution) of CCOC(=O)OC1=C(c2cc(C)ccc2C)C(=O)NC12CCC(OC)CC2 (stereo not given) + CCO + O , can you help? 0.748

* * *

Assay: xn = mol fraction of the nth substance listed, in the solute-free solvent
Details: 288.15 K; x2 = 0.2
Quick rule: solubility (g/100 g solution) of at least 1 means yes (1), below that means no (0).

Example entries begin here.
molecule: NC(=O)NC1NC(=O)NC1=O (stereo not given) + O + CO
group.label: no (0)

molecule: Cc1c(Br)c(=O)n(C2CCCC2)c2nc(Cl)ncc12 + CCOC(C)=O + CCO
group.label: no (0)

molecule: CCOC(=O)OC1=C(c2cc(C)ccc2C)C(=O)NC12CCC(OC)CC2 (stereo not given) + CC(C)O + O
group.label: yes (1)

molecule: N#CCNC(=O)c1cnccc1C(F)(F)F + CCOC(C)=O + CCO
group.label: yes (1)

Now look at this one.
Please tell me: is the molecule Cc1c(Br)c(=O)n(C2CCCC2)c2nc(Cl)ncc12 + C1CCOC1 + CCO at or over 1 in terms of solubility (g/100 g solution)? yes (1)
